- systemName: human TRPA1 (Homo sapiens, UniProt O75762)
- Construct: expressed in transfected cells
- Sequence (O75762 whole entry): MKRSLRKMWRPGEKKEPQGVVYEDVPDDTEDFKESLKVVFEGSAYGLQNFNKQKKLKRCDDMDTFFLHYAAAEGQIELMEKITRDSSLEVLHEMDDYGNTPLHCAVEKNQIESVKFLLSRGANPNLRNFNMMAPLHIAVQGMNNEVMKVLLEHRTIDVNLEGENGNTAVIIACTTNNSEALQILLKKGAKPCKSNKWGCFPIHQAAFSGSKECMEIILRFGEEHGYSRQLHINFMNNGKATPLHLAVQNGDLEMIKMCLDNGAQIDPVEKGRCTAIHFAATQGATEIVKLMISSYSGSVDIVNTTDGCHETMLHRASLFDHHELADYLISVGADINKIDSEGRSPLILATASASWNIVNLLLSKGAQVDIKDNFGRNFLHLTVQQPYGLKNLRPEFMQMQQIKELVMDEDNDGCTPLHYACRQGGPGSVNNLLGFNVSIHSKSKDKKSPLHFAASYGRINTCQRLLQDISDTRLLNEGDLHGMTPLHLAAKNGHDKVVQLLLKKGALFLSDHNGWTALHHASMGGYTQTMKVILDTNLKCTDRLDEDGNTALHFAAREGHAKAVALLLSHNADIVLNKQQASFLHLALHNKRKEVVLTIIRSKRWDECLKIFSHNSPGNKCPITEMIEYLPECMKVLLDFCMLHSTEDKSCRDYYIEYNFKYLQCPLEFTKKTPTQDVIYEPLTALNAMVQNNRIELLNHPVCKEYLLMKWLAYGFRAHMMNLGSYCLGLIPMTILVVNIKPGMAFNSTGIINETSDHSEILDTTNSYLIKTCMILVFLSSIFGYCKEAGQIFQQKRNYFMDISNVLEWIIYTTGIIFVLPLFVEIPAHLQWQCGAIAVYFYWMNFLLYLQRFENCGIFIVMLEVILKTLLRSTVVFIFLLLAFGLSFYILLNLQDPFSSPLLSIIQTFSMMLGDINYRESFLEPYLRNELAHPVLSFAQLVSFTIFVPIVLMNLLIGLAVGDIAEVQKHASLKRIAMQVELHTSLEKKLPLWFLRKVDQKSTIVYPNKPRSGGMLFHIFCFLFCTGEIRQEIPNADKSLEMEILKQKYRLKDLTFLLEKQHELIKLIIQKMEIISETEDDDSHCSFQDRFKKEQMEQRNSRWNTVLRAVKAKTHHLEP
- test: Cell-based functional intracellular calcium ([Ca2+]i) assay, Fluo-4/Fluo-8, FlexStation, challenge with reference TRPA1 agonist (FFA, AITC or 4-HNE)
- particulars: HEK293 cells expressing human TRPA1; IC50 class after addition of reference TRPA1 agonist (FFA, AITC or 4-HNE); read-out: human TRPA1-HEK Activity
# IC50 values compiled below
observationType: IC50

[
  {
    "compound": "O=C(c1cc(-c2cccnc2)n(-c2ccc(C(F)(F)F)c(F)c2)n1)N1CCC(n2c(=S)[nH]c3ccc(F)c(F)c32)CC1 [Compound 182]",
    "reportedResult": "0.001 to 5 µM"
  },
  {
    "compound": "N#CC1(c2ccccc2)CCN(C(=O)c2cc(-c3ccncc3)n(-c3ccccc3)n2)CC1 [Compound 28]",
    "reportedResult": "> 25 µM"
  },
  {
    "compound": "CC1CC(n2c(=O)[nH]c3ccc(F)c(F)c32)CCN1C(=O)c1cc(-c2cccnc2)n(-c2ccc(F)c(C(F)(F)F)c2)n1 (stereo not shown) [Compound 293]",
    "reportedResult": "0.001 to 5 µM"
  },
  {
    "compound": "O=C(c1cc(-c2ccncc2)n(-c2ccc3c(c2)OCO3)n1)N1CCC(n2c(=O)[nH]c3ccccc32)CC1 [Compound 156]",
    "reportedResult": "> 25 µM"
  },
  {
    "compound": "O=C(c1nn(-c2cc(F)c(F)c(F)c2)c(-c2cccnc2)c1Br)N1CCC2(CC1)C(=O)NCN2c1ccc(F)cc1 [Compound 210]",
    "reportedResult": "0.001 to 5 µM"
  },
  {
    "compound": "Cc1nc(C(F)(F)F)ccc1-c1cc(C(=O)N2CCC3(CC2)C(=O)NCN3c2ccc(F)cc2)nn1-c1ccc(C(F)(F)F)c(F)c1 [Compound 263]",
    "reportedResult": "> 25 µM"
  },
  {
    "compound": "N#Cc1ccc2c(c1)[nH]c(=O)n2C1CCN(C(=O)c2cc(-c3cccnc3)n(-c3cc(F)c(F)c(F)c3)n2)CC1 [Compound 229]",
    "reportedResult": "0.001 to 5 µM"
  }
]
